observable: melting point

molecule: NC(CCO)c1ccccc1 (configuration not stated)
measured-result: 70 to 77 °C
--
molecule: CCOC(=O)c1nnn2c3ccccc3c(=O)n(C)c12
measured-result: 149 to 150 °C
--
molecule: COc1ccc(Br)cc1/C=c1\sc2nc3ccccc3n2c1=O
measured-result: 250 to 252 °C
--
molecule: O=C(O)c1cccc(-c2ccsc2)c1
measured-result: 177 to 179 °C
--
molecule: Nc1ccc(-c2ccc(N)c(Cl)c2)cc1Cl
measured-result: 132 °C
--
molecule: Cn1[nH]c(N)c2c(=O)c(C(=O)O)cnc1-2
measured-result: 224 °C
--
molecule: COc1ncccc1C(=O)O
measured-result: 149 °C
--
molecule: CCCCCCCCCCCCOC(=O)c1ccccc1C(=O)OCCCCCCCCCCCC
measured-result: 21 to 23 °C
--
molecule: CC(C)(C)c1nc2ccccc2[nH]1
measured-result: 320 °C
--
molecule: CC(CC(=O)OOC(C)(C)C)CC(C)(C)C (configuration not stated)
measured-result: -30 °C
--
molecule: CCCCCOC(=O)C1=C(C)NC(=O)NC1c1ccc2c(c1)OCO2 (configuration not stated)
measured-result: 144 °C
--
molecule: CN(C)c1ccc(/C=C(\C(N)=O)c2nc3ccccc3s2)cc1
measured-result: 210 °C

###

compound: Cn1cc(C=O)c(N)n1
melting point: 133 to 134 °C

compound: FC(F)(F)c1ccccc1-n1cc[nH]c1=S
melting point: 236 to 238 °C

compound: O=P(c1ccccc1)(c1ccccc1)C1C=C(c2ccccc2)C=C(c2ccccc2)O1 (centres undefined)
melting point: 151 to 152 °C

compound: CC(=O)Oc1ccc2c(C)cc(=O)oc2c1
melting point: 152 to 156 °C

###

In this section we review reported melting point values for a set of molecules.
observable: melting point (°C)

molecule: N#CC1=C(N)Oc2c(c(C(F)(F)F)nn2-c2ccccc2)C1c1ccc(Cl)cc1 (stereo not given)
measured-result: 221

molecule: OCC1NC(CO)C(O)C1O (stereo not given)
measured-result: 102

molecule: c1cc2c3c(c1)CCC3CCC2 (stereo not given)
measured-result: 12.8

molecule: CC(=O)C=C(C)C
measured-result: -53

molecule: O=[N+]([O-])c1ccccc1-n1cccc1
measured-result: 59

molecule: NC(=O)C(CCN1CCCCCC1)(c1ccccc1)c1ccccc1
measured-result: 142

molecule: CC1(CO)CN(c2ccccc2)NC1=O (stereo not given)
measured-result: 125

molecule: Cc1cc(Cl)nnc1Cl
measured-result: 87

molecule: CC(=O)C(c1ccccc1)c1ccc(C(F)(F)F)cc1[N+](=O)[O-] (stereo not given)
measured-result: 91

molecule: O=C(c1ccc(Br)cc1)c1noc(-c2ccc(Cl)cc2)c1S(=O)(=O)c1ccccc1
measured-result: 145

molecule: O=[N+]([O-])c1ccc(C=Cc2ccc([N+](=O)[O-])cc2)cc1
measured-result: 183

molecule: O=C1NC2NC(=O)NC2N1 (stereo not given)
measured-result: 300

molecule: Cc1cc(O)c(C)c(C)c1C
measured-result: 85.3

molecule: C=CC1CN2CCC1CC2c1[nH]c2ccccc2c1CCO (stereo not given)
measured-result: 186

molecule: Clc1cc2c(oc3c(Cl)c(Cl)c(Cl)c(Cl)c32)c(Cl)c1Cl
measured-result: 233

molecule: Nc1cc(F)c(F)c(Br)c1
measured-result: 68

molecule: C[C@]12CC[C@H]3[C@@H](CCC4CC(=O)CC[C@@]43C)C1=CCC2=O (stereo not given in full)
measured-result: 151

molecule: Clc1cccc(C(Cl)(Cl)Cl)c1
measured-result: 0.6

molecule: Cc1ccc(C)nc1
measured-result: -16

molecule: Clc1ccc2c(c1)Oc1ccccc1O2
measured-result: 88

molecule: COC(=O)C1C(O)CCC2CN3CCc4c([nH]c5ccccc45)C3CC21 (stereo not given)
measured-result: 234

molecule: COC(=O)c1c(Cl)nn(C)c1S(=O)(=O)NC(=O)Nc1nc(OC)cc(OC)n1
measured-result: 176

molecule: COc1cc2c(c(OC)c1OC)-c1ccc(O)c(=O)cc1C(NC(C)=O)CC2 (stereo not given)
measured-result: 178

molecule: Cc1nc2cc(O)ccc2s1
measured-result: 186

molecule: SCc1ccc(Br)cc1
measured-result: 27

Value source: a melting point compilation (Tetko et al.)
